Item-by-item account of pIC50
- Tested Target: binding between IKKβ and full-length Regnase-1 (FL_Reg1) (Homo sapiens, UniProt Q5D1E8)
- Construct: made in house; host or cells: Expi293 cells
- Sequence (Q5D1E8 whole entry): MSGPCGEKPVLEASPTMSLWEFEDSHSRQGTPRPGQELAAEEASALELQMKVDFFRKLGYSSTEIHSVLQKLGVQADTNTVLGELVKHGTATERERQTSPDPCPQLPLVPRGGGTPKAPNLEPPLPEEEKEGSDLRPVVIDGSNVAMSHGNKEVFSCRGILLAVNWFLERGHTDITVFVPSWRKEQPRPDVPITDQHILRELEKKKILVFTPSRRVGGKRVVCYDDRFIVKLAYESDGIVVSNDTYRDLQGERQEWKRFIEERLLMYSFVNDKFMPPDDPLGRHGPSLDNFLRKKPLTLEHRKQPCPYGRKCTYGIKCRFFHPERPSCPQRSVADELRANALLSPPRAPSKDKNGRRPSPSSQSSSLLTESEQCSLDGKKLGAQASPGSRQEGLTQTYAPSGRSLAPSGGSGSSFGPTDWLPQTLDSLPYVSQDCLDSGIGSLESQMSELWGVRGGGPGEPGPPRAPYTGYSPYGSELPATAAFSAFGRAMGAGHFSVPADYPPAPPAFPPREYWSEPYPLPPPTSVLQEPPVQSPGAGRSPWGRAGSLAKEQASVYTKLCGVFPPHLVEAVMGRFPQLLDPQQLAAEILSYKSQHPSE
- Procedure Text: Inhibition of kinase-Regnase-1 binding by the compounds (AlphaScreen), IKKβ
- Measurement Setup: Table 14; binding between IKKβ and Regnase-1; read-out: Binding inhibition FL_Reg1, 50% inhibition concentration (IKKβ)
pIC50: −log10 of the molar value. Residues, ends and D or L forms follow the SMILES beside them.

Consider the reported pIC50 for these compounds:
{"Compound": "CC[C@H](C)[C@@H]1NC(=O)[C@H](CC(=O)O)NC(=O)[C@H](C)N(C)C(=O)C[C@@H](C(=O)N2CCCC2)NC(=O)[C@H](Cc2ccc(O)cc2)NC(=O)[C@H](CC(=O)O)NC(=O)[C@H](Cc2c[nH]c3ccccc23)NC(=O)[C@H](Cc2ccc(O)cc2)NC(=O)[C@H](CC(=O)O)NC(=O)[C@H](Cc2ccccc2)NC(=O)[C@H](Cc2c[nH]c3ccccc23)NC1=O [PP18] (HELM PEPTIDE1{[meA].D.I.W.F.D.Y.W.D.Y.D.[C1CCN([*:1])C1]}$PEPTIDE1,PEPTIDE1,1:R1-11:R3$$$V2.0)", "Tested Target": "binding between IKKβ and full-length Regnase-1 (FL_Reg1) (Homo sapiens, UniProt Q5D1E8)", "pIC50": "> 7.22"}
{"Compound": "CC[C@H](C)[C@@H]1NC(=O)[C@H](Cc2c[nH]c3ccccc23)NC(=O)[C@H](CCC(N)=O)NC(=O)[C@H](Cc2ccc(O)cc2)NC(=O)[C@H](C(C)C)NC(=O)[C@H](C)NC(=O)[C@H](Cc2ccc(O)cc2)NC(=O)[C@H](CCCNC(=N)N)NC(=O)[C@H](C)N(C)C(=O)C[C@@H](C(=O)N2CCCC2)NC(=O)[C@@H]2CCCN2C(=O)[C@H](Cc2ccc(O)cc2)NC1=O [PP12] (HELM PEPTIDE1{[meA].R.Y.A.V.Y.Q.W.I.Y.P.D.[C1CCN([*:1])C1]}$PEPTIDE1,PEPTIDE1,1:R1-12:R3$$$V2.0)", "Tested Target": "binding between IKKβ and full-length Regnase-1 (FL_Reg1) (Homo sapiens, UniProt Q5D1E8)", "pIC50": "< 4.21"}
{"Compound": "CC[C@H](C)[C@@H]1NC(=O)[C@H](Cc2c[nH]c3ccccc23)NC(=O)[C@@H](Cc2ccccc2)NC(=O)[C@H](CCCCN)NC(=O)[C@H](C)N(C)C(=O)C[C@@H](C(=O)N2CCCC2)NC(=O)[C@H](CCC(=O)O)NC(=O)[C@H](Cc2ccccc2)NC(=O)[C@H](CO)NC(=O)[C@H](Cc2c[nH]cn2)NC(=O)[C@H](Cc2c[nH]cn2)NC1=O [PP20] (HELM PEPTIDE1{[meA].K.[dF].W.I.H.H.S.F.E.D.[C1CCN([*:1])C1]}$PEPTIDE1,PEPTIDE1,1:R1-11:R3$$$V2.0)", "Tested Target": "binding between IKKβ and full-length Regnase-1 (FL_Reg1) (Homo sapiens, UniProt Q5D1E8)", "pIC50": "< 4.21"}

Alright, here's another compound for you.
q: I would be grateful if you could share the reported pIC50 for CC[C@H](C)[C@@H]1NC(=O)[C@H](Cc2c[nH]c3ccccc23)NC(=O)[C@H](CCCNC(=N)N)NC(=O)[C@H](Cc2ccccc2)NC(=O)[C@H](CCC(N)=O)NC(=O)[C@H](C)NC(=O)[C@H](Cc2ccccc2)NC(=O)[C@H](CCCCN)NC(=O)[C@H](C)N(C)C(=O)C[C@@H](C(=O)N2CCCC2)NC(=O)[C@@H]2CCCN2C(=O)[C@H](Cc2ccc(O)cc2)NC1=O [PP11] (HELM PEPTIDE1{[meA].K.F.A.Q.F.R.W.I.Y.P.D.[C1CCN([*:1])C1]}$PEPTIDE1,PEPTIDE1,1:R1-12:R3$$$V2.0) .
a: < 4.21
